- studySystem: T1, hFc-hFasL (fusion protein of human Fc fragment and human FasL extracellular region) (human, UniProt P48023 134-281)
- T1 sequence: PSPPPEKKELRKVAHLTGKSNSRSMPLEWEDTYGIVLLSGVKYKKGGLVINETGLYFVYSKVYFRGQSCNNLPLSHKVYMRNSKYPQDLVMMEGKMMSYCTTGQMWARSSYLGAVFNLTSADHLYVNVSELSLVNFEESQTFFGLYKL
- experimentSummary: cell-based or functional assay
measurementLabel: EC50(nM), FasL antigen-induced NF-κB signaling pathway activation (SEAP, HepG2-Dual)
Give bare numbers, in nM.

FL-M05 (antibody, V domains shown, Chimeric full-length antibody, tested as human IgG4 / human kappa) VH: EVQLQQSGAELVRPGVSVKISCKGSGYTFTDYTMHWVKQSHAKSLEWIGVISTYQGDARYNQKFKGKATMTVDKSSSTAYMELARLTSEDSAIYYCARFPDWDYAMDYWGQGTSVTVSS VL: DIVLTQSPASLAVSLGQRATISCKASQSVDYDGDSYMNWYQQKPGQPPKLLIYAASNLESGIPARFSGSGSGTDFTLNIHPVEEEDAATYYCQHSRELPYTFGGGTKLEIK; 1.13

Go through the items and report each one's EC50(nM), FasL antigen-induced NF-κB signaling pathway activation (SEAP, HepG2-Dual).
1. FL-M54 (antibody, V domains shown, Chimeric full-length antibody, tested as human IgG4 / human kappa) VH: EVQLQQSGVELVKPGASVKLSCKASGYTFTRFDISWVRQRPEQGLEWIGWIFPGDGSSQYNENFKGKATLTTDKSSGTAYMQLNRLTSEDSAVYFCARSLISTAMFDHWGQGTTLTVSS VL: DIVMTQSPASLAVSLGQRATISCRASKSVSTSDFSYIHWYQQKPGQPPKLLIFLASHLESGVPARFSGSGSGTDFTLNIHPVEEEDAATYYCQHSRELPRTFGGGTKLEIK
2. FL-M56 (antibody, V domains shown, Chimeric full-length antibody, tested as human IgG4 / human kappa) VH: EVQLQQSGPELVKPGASVKLSCKASGYTFTRFDISWVRQRPEQGLEWIGWIFPGDGSTQYNENFKGKATLTTDKSSGTAYMQLNRLTSEDSAVYFCARSLISTAMFDHWGQGTTLTVSS VL: DIVLTQSPASLAVSLGQRATISCRASKSVSTSDFSYIHWYQQKPGLPPKLLIFLASHLESGVPARFSGSGSGTDFTLNIHPVEEEDAATYYCQHSRELPRTFGGGTKLEIK
3. FL-M89 (antibody, V domains shown, Chimeric full-length antibody, tested as human IgG4 / human kappa) VH: EVQLQQSGAELVRPGVSVKISCKGSGYTFTDYTIHWVKQSHAKSLEWIGVISTYQGDASYNQKFKGKATMTVDKSSSTAYMELARLTSEDSAIYYCARFPDWDYAMDYWGQGTSVTVSS VL: DIVMTQSPASLAVSLGQRATISCKASQSVDYDGDSYMNWYQQKPGQPPKLLIYAASNLESGIPARFSGSGSGTDFTLNIHPVEEEDAATYYCQQSRELPYTFGGGTKLEIK

Out:
1.97
2.73
1.33
